target: Smo wild type (Homo sapiens); assay: Reporter assay of C3H10T1/2-Gli-Luc cells transfected with wild-type Smo, without SAG; details: C3H10T1/2 cells transfected with pLPCX-SMO, no SAG, 48 hr; read-out: Inhibition of C3H10T1/2-Gli-Luc-Smo-WT [IC50
Sequence (Q99835 28-787): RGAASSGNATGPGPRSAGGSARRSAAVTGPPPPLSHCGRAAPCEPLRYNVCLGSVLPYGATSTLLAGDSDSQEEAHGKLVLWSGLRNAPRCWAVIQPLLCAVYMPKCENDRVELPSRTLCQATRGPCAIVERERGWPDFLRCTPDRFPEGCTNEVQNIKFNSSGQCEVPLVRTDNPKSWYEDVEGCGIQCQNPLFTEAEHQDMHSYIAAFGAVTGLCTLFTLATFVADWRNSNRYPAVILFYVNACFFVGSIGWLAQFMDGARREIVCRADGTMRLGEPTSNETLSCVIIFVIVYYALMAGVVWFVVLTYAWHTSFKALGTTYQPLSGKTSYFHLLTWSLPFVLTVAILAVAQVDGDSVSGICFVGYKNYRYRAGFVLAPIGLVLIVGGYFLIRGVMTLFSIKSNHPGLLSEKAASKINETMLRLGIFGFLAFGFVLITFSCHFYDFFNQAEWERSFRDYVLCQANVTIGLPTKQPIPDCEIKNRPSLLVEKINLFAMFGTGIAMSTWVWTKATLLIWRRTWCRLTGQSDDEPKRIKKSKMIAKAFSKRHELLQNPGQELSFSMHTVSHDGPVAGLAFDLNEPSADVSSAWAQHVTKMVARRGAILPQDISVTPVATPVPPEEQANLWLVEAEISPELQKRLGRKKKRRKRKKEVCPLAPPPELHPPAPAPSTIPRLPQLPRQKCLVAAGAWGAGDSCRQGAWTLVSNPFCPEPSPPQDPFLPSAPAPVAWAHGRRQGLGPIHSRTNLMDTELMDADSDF
pIC50: −log10 of the molar value.
PROPERTY LABEL: pIC50

// known answers, use as guide
CCOc1cnc(Nc2ccc(C(=O)Nc3cc(CN4CCOCC4)ccc3C)cc2)nc1-c1ccc(OC(F)(F)F)cc1 [Compound 72] | > 7.00
CSc1cnc(Nc2ccc(C(=O)Nc3cc(CN4CCOCC4)ccc3F)cc2)nc1-c1ccc(OC(F)(F)F)cc1 [Compound 70] | > 7.00
COc1ccc(CN2CCOCC2)cc1NC(=O)c1ccc(Nc2ncc(SC)c(-c3ccc(OC(F)(F)F)cc3)n2)c(F)c1 [Compound 58] | > 7.00
CSc1cnc(Nc2ccc(C(=O)Nc3cc(CN4CCOCC4)ccc3C)cc2)nc1-c1ccc(C#N)cc1 [Compound 33] | > 7.00
COc1cccc(OC)c1NC(=O)c1ccc(Nc2ncc(SC)c(-c3cccnc3F)n2)cc1 [Compound 9] | > 7.00
CSc1cnc(Nc2ccc(C(=O)Nc3cc(CN(C)C)ccc3C)cc2)nc1-c1ccc(C#N)cc1 [Compound 34] | 6.00 to 7.00
CCOc1cnc(Nc2ccc(C(=O)Nc3cc(CN(CC)CC)ccc3C)cc2)nc1-c1ccc(F)cc1 [Compound 77] | > 7.00
CSc1cnc(Nc2ccc(C(=O)Nc3cc(CN4CCCCC4)ccc3C)cc2)nc1-c1ccc(C(F)(F)F)cc1 [Compound 28] | 6.00 to 7.00

**Query** What value of pIC50 on Smo wild type (Homo sapiens) does CSc1cnc(Nc2ccc(C(=O)Nc3cc(CN4CCCCC4)ccc3C)cc2F)nc1-c1ccc(F)cc1 [Compound 42] have?
**Result** > 7.00

**Query** Would you mind doing COc1cccc(OC)c1NC(=O)c1ccc(Nc2ncc(SC)c(-c3ccccc3)n2)cc1 [Compound 21] as well?
**Result** > 7.00

**Query** Likewise for CNc1cnc(Nc2ccc(C(=O)Nc3cc(CN4CCOCC4)ccc3C)cc2)nc1-c1ccc(OC(F)(F)F)cc1 [Compound 91] ?
**Result** > 7.00

**Query** COc1cnc(Nc2ccc(C(=O)Nc3cc(CN4CCOCC4)ccc3C)cc2F)nc1-c1ccc(F)cc1 [Compound 60] , same question.
**Result** > 7.00

**Query** Also check CSc1cnc(Nc2ccc(C(=O)Nc3cc(CN4CCN(C)CC4)ccc3C)cc2)cc1-c1ccc(C(F)(F)F)cc1 [Compound 90]
**Result** > 7.00

**Query** Param item: CSc1cnc(Nc2ccc(C(=O)Nc3ccc(C(F)(F)F)c(Cl)c3)cc2)nc1-c1ccc(C#N)cc1 [Compound 4]
**Result** 6.00 to 7.00

**Query** // repeat for CSc1cnc(Nc2ccc(C(=O)Nc3cc(CN4CCOCC4)ccc3C)cc2)cc1-c1ccc(OC(F)(F)F)cc1 [Compound 81] and report
**Result** > 7.00

---

Below, each entry is listed alongside its reported IC50.
Target: Smo D473H mutant (Homo sapiens, UniProt Q99835, D473H)
Sequence (Q99835 28-787 D473H): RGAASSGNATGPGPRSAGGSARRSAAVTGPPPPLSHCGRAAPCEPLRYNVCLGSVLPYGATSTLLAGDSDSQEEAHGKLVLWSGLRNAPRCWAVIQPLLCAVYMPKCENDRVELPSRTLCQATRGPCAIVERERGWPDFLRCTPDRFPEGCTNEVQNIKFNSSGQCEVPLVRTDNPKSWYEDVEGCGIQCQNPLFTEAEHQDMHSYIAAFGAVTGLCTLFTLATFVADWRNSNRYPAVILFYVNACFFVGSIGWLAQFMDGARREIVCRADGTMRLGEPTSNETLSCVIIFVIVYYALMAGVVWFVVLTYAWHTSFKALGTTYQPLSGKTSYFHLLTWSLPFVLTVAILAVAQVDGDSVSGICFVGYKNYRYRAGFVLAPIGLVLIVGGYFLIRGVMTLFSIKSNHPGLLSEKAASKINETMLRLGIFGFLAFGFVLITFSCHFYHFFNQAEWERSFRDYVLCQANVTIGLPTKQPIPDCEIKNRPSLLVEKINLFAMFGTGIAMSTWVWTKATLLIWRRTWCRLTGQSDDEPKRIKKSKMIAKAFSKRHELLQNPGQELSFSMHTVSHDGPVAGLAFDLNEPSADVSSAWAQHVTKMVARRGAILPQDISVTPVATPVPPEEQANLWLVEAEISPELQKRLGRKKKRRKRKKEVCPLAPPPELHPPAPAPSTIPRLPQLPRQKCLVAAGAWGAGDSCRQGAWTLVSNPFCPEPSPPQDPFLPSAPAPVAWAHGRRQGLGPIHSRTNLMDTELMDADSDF
Assay: Reporter assay of C3H10T1/2-Gli-Luc cells transfected with Smo D473H mutant, without SAG
Settings: C3H10T1/2 cells transfected with pLPCX-SMO-D473H, no SAG, 48 hr; read-out: Inhibition of C3H10T1/2-Gli-Luc-Smo-D473H [IC50
Protocol: A transient transfection system with a Smo wild type or a Smo D473H mutant was also used for compound screening. […] Firefly luciferase and Renilla luciferase activity was determined using the Dual-Glo Luciferase reporter assay system (Promega) with a Victor3 plate reader (PerkinElmer Life Sciences). Firefly luciferase readings were normalized to Renilla luciferase to correct for transfection efficiency. […]

Look over these answered cases.
CCN(CC)Cc1ccc(C)c(NC(=O)c2ccc(Nc3ncc(SC)c(-c4ccc(F)cc4)n3)c(F)c2)c1 [Compound 53] | < 100 nM
CSc1cnc(Nc2ccc(C(=O)Nc3cc(CN4CCOCC4)ccc3C)cc2)nc1-c1ccc(C(F)(F)F)cc1 [Compound 27] | 100 to 1000 nM
CSc1cnc(Nc2ccc(C(=O)Nc3cc(CN4CCOCC4)ccc3C)cc2)cc1-c1ccc(F)cc1 [Compound 84] | 100 to 1000 nM

**Query** Report IC50 for CSc1cnc(Nc2ccc(C(=O)Nc3c(F)cccc3F)cc2)nc1-c1cccnc1 [Compound 10] tested on Smo D473H mutant (Homo sapiens, UniProt Q99835, D473H).
**Result** 100 to 1000 nM

**Query** Please give the result for CSc1cnc(Nc2ccc(C(=O)Nc3cc(CN(C)C)ccc3C)cc2)nc1-c1ccc(C(F)(F)F)cc1 [Compound 32] too.
**Result** 100 to 1000 nM
